Test system: SK-MEL-5
Assay: NCI tumour cell line growth inhibition, 48 h
Activity calls are given as the source filed them. Rule as the data show it: active = GI50 up to about 1.1 µM and inactive = higher.
Outcomes: active, inactive

{"COMPOUND": "N=c1nc(N)c2cc3c(N)nc(=N)c3cc12", "QUALITATIVE_LABEL": "inactive"}
{"COMPOUND": "NCCOc1ccc(/C(=C(/Cl)c2ccccc2)c2ccccc2)cc1", "QUALITATIVE_LABEL": "inactive"}
{"COMPOUND": "O=C1/C(=C\\c2cccc(Oc3ccccc3)c2)S(=O)(=O)C(c2ccccc2)N1c1ccccc1Cl (stereo unspecified)", "QUALITATIVE_LABEL": "inactive"}
{"COMPOUND": "O=C1O/C(=C\\c2ccc(O)c(Br)c2)C(c2ccc(O)c(Cl)c2)=C1Br", "QUALITATIVE_LABEL": "inactive"}
{"COMPOUND": "CCN(CC)c1ccc2cc(-c3csc(C)n3)c(=O)oc2c1", "QUALITATIVE_LABEL": "inactive"}
{"COMPOUND": "Nc1nc2ncn(CCO)c2c(=S)[nH]1", "QUALITATIVE_LABEL": "inactive"}
{"COMPOUND": "COc1c(C)c(O)c2c(=O)cc(-c3ccccc3)oc2c1C", "QUALITATIVE_LABEL": "inactive"}
{"COMPOUND": "O=C1Cc2ccccc2CCc2ccsc21", "QUALITATIVE_LABEL": "inactive"}
{"COMPOUND": "Cc1nc(O)nc(O)c1/C=C/C(=O)O", "QUALITATIVE_LABEL": "inactive"}
{"COMPOUND": "COc1cc2cc(C(=O)N3CC(COS(C)(=O)=O)c4c3cc([N+](=O)[O-])c3ccccc43)[nH]c2c(OC)c1OC (stereo unspecified)", "QUALITATIVE_LABEL": "inactive"}
{"COMPOUND": "Cc1nc(Cl)c(C)c(Cl)n1", "QUALITATIVE_LABEL": "inactive"}
{"COMPOUND": "O=C1c2cccc3c(Cl)ccc(c23)C(=O)N1CCCN1CCN(CCCN2C(=O)c3cccc4c(Cl)ccc(c34)C2=O)CC1", "QUALITATIVE_LABEL": "inactive"}
{"COMPOUND": "CSc1nc2c(c(O)c(C)c(=O)n2C2OC(COC(C)=O)C(OC(C)=O)C(OC(C)=O)C2OC(C)=O)c(=O)n1C (stereo unspecified)", "QUALITATIVE_LABEL": "inactive"}
{"COMPOUND": "CN(C(=O)CCC(=O)O)c1ccccc1C(=O)O", "QUALITATIVE_LABEL": "inactive"}
{"COMPOUND": "Nc1nc(Cl)c(N)c(NCC2(CO)CC2)n1", "QUALITATIVE_LABEL": "inactive"}
{"COMPOUND": "CCc1ccc(CCC(=O)O)nc1", "QUALITATIVE_LABEL": "inactive"}
{"COMPOUND": "Cc1ccccc1NC(=O)C1C(=O)N(c2ccccc2C)C(=O)/C1=N\\N (stereo unspecified)", "QUALITATIVE_LABEL": "inactive"}
{"COMPOUND": "CC1=C[C@@H](C)C[C@]2(C)CC[C@H](O2)[C@]23CC[C@](CO)(C[C@H](O2)[C@@H]2O[C@@](C)(CC2=O)[C@@H](O)[C@H]2CC[C@@]4(CCC[C@@H](O4)[C@H](C)C(=O)O[C@H]4C[C@H]([C@]5(O)OCC[C@H](C)[C@@H]5O)O[C@H]4C=C1)O2)O3", "QUALITATIVE_LABEL": "active"}
{"COMPOUND": "CCc1c(-c2ccc(OC)cc2)oc(OC)c(C)c1=O", "QUALITATIVE_LABEL": "inactive"}
{"COMPOUND": "COc1cc(C2c3cc4c(cc3[C@@H](Nc3ccc(N)cc3)C3COC(=O)[C@H]23)OCO4)cc(OC)c1O (stereo partly specified)", "QUALITATIVE_LABEL": "active"}
{"COMPOUND": "CC1(c2nc3cc(Cl)c(Cl)cc3[nH]2)CCC(C(=O)O)C(C)(C)O1 (stereo unspecified)", "QUALITATIVE_LABEL": "inactive"}
